targetEntity: T1, EsCas13d, nuclease-dead (Eubacterium siraeum, UniProt B0MS50, R295A;H300A;R849A;H854A)
T1 sequence: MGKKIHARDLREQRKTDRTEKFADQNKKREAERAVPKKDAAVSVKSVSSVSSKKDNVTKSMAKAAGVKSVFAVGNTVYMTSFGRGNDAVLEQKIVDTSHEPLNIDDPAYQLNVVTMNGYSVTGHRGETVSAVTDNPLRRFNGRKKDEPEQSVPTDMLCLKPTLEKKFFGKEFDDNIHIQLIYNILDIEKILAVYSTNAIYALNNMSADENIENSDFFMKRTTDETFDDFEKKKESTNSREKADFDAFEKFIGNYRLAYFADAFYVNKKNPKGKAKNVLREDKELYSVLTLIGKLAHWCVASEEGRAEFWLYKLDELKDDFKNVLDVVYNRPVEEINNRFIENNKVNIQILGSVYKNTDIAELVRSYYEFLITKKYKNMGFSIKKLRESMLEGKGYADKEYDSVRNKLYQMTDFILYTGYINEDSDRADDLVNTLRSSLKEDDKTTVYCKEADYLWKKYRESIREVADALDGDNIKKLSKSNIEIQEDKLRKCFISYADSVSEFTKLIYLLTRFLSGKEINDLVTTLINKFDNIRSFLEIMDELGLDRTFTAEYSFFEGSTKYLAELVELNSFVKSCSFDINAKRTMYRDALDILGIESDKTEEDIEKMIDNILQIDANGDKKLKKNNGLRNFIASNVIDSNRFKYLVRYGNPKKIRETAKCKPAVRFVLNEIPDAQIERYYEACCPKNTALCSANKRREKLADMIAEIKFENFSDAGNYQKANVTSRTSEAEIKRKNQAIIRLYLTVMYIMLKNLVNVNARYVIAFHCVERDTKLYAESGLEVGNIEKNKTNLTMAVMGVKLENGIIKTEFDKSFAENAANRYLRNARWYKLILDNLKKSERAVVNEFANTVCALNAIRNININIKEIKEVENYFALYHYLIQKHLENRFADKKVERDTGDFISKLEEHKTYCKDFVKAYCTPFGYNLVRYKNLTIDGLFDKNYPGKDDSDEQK
experiment: crRNA (strand 1, pre-loaded); Mg2+; 40 mM Tris-HCl pH 7.5, 150 mM NaCl, 6 mM MgCl2, 1 mM DTT, 0.1% Tween-20, 0.2 mg/ml BSA; 25 C; 10 min per concentration, then washed
protocolConditions: tags: His6-TwinStrep-SUMO cleaved; N-terminal SNAP kept (SNAP-Surface 488); label: 3' end held by stalled T7 RNA polymerase
// values below are reported Kd
Use nM as the unit, but write only the number.

// solved cases for Kd follow
binder | unitsLabel | Kd
target 1 G15U,G17A (mixed) RNA 1: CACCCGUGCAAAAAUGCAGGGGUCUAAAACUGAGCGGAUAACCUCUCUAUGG RNA 2: GGGAAUGGAUCCACAUCUACGAAUUCGUACCAUAAAUAGGUUAUCCGCUCACCGAGAUCGGAAGAGCACACGU | nM | 53
target 2 MT 5'PFS CGG 3'PFS AGG (mixed) RNA 1: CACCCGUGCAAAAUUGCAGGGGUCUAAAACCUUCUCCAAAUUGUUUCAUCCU RNA 2: GGGAAUGGAUCCACAUCUACGAAUUCCGGAGGAUGAAACAAUUUGGAGAAGAGGAGAUCGGAAGAGCACACGU | nM | 4.5
target 1 insA 3' of 19,insC 3' of 5 (mixed) RNA 1: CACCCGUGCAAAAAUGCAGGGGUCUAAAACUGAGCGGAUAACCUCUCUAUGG RNA 2: GGGAAUGGAUCCACAUCUACGAAUUCGUACCAUAAGAGAGGUUAUCCGCCUCACCGAGAUCGGAAGAGCACACGU | nM | 48

Alright, here's another binder for you.
# query: Kd of entry target 2 MT 5'PFS AAC 3'PFS ACC (mixed) RNA 1: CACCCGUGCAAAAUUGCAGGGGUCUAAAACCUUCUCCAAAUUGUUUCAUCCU RNA 2: GGGAAUGGAUCCACAUCUACGAAUUCAACAGGAUGAAACAAUUUGGAGAAGACCAGAUCGGAAGAGCACACGU 7

Attribution: paper PMC10786891
